This collection of values is drawn from PubChem BioAssay (NCATS).

system: N140; assay: qHTS profiling for inhibitors of Plasmodium falciparum proliferation (AID 504749); note: nearly all actives have a fitted effect of over 60% in size; conditions: P. falciparum in erythrocytes, SYBR Green DNA, 72 h; series mostly up to 28.7 µM
Records with an inconclusive call do not appear. Calls of active or inactive are those of the source. Calls come from the whole dose curve; as a rule, active = well fitted inhibition curve with a large enough effect; inconclusive = small, poorly fitted or top-dose-only effect; inactive = flat fitted curve, though single readings scatter.
Hi there, use one of these labels in your reply, thanks! active, inactive

Compound	Cat
CCC1=C[C@@H]2CN(C1)Cc1c([nH]c3ccccc13)[C@@](C(=O)OC)(c1cc3c(cc1OC)N(C)[C@@H]1[C@@](O)(C(=O)OC)[C@H](OC(C)=O)[C@]4(CC)C=CCN5CC[C@]31[C@@H]54)C2	active
Nc1ccn([C@@H]2CS[C@H](CO)O2)c(=O)n1	inactive
C[C@H]1C[C@@H]2[C@@H]([C@@H](O)C[C@@]3(C)[C@H]2CC[C@]3(O)C(=O)CO)[C@@]2(C)C=CC(=O)C=C12	inactive
CN1c2cc(O)c(N=NC(N)=O)cc2CC1S(=O)(=O)O (centres undefined)	inactive
O=C(O)CO.[NH2-].[NH2-].[Pt+2]	inactive

Task item: Name the outcome recorded for `CC[C@H]1CN2CCc3cc(OC)c(OC)cc3[C@H]2C[C@@H]1C[C@@H]1NCCc2cc(OC)c(OC)cc21` in the assay.
Reply: active

Task item: Name the outcome recorded for COC(=O)C1=C(C)NC(C)=C(C(=O)OCCN2CCN(C(c3ccccc3)c3ccccc3)CC2)C1c1cccc([N+](=O)[O-])c1 (centres undefined) in the assay.
Reply: active

Task item: Name the outcome recorded for `CC=CC1=C(C(=O)O)N2C(=O)[C@H](NC(=O)[C@H](N)c3ccc(O)cc3)[C@@H]2SC1` in the assay.
Reply: inactive

Task item: Name the outcome recorded for O=c1[nH]c(=O)n(C2CCCO2)cc1F (centres undefined) in the assay.
Reply: inactive

====

assay: qHTS profiling for inhibitors of Plasmodium falciparum (3D7) proliferation (AID 743322);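 note: infected erythrocytes exposed to compound for 72 h before lysis; 100% = DMSO vehicle wells and 0% = 0.29 µM artemisinin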; settings: P. falciparum 3D7 proliferation; at 28.7 µM (top of the series)
Assay endpoint: remaining parasite growth % (stronger effect = lower value) (%)
Value expressed in %; do not type the unit.

The following compounds have reported results that may help.
Cc1ccc(C(N)=O)cc1Nc1nccc(-c2cn(C(C)C)c3cnccc23)n1 -1.17
CCN(CC)CCCCNc1ncc2cc(-c3cc(OC)cc(OC)c3)c(NC(=O)NC(C)(C)C)nc2n1 -0.484

As a next step, examine the compound that follows.
For `C[C@@H]1CN(CC(=O)Nc2ccc3c(c2)Cc2cccc(-c4cc(=O)cc(N5CCOCC5)o4)c2S3)C[C@H](C)O1` the compound record lists remaining parasite growth % (stronger effect = lower value) as -0.753

====

assay: qHTS profiling of the MIPE4 collection as inhibitors of Plasmodium falciparum (DD2) proliferation (Rep 2) (AID 743346); details: P. falciparum Dd2 in erythrocytes, SYBR Green DNA, 72 h; at 28.5 µM (top of the series) unless noted
Classify: satisfied when parasite growth, % of control (lower = inhibition) is strictly less than 40%; not satisfied when parasite growth, % of control (lower = inhibition) is not.

O=C(Nc1nc2cccc(-c3ccc(CN4CCS(=O)(=O)CC4)cc3)n2n1)C1CC1 not satisfied

Task item: Check if parasite growth, % of control (lower = inhibition) falls below 40% for `CN(C)c1nc(Cc2ccc(NC(=O)c3ccc4ccccc4c3)cc2)nc(Cl)c1CC(=O)O` .
Reply: not satisfied

Task item: Check if parasite growth, % of control (lower = inhibition) falls below 40% for `CNC(=O)c1cc(Oc2ccc(NC(=O)Nc3cc(C(C)(C)C)nn3-c3ccc4ncccc4c3)c(F)c2)ccn1` .
Reply: satisfied

Task item: Check if parasite growth, % of control (lower = inhibition) falls below 40% for `CCN(CC)CCNC(=O)c1ccc2nc(-c3ccccc3)c(-c3ccc(CN4CCC(n5c(=O)[nH]c6ccccc65)CC4)cc3)nc2c1` .
Reply: satisfied

Task item: Check if parasite growth, % of control (lower = inhibition) falls below 40% for `CN[C@H]1CCc2cc(OC)c(OC)c(OC)c2-c2ccc(OC)c(=O)cc21` .
Reply: not satisfied

Task item: Check if parasite growth, % of control (lower = inhibition) falls below 40% for `Nc1cc(C(F)(F)F)c(-c2cc(N3CCOCC3)nc(N3CCOCC3)n2)cn1` .
Reply: not satisfied

Task item: Check if parasite growth, % of control (lower = inhibition) falls below 40% for `CC(C)(O)c1cc2nc(-c3cnc(N)nc3)nc(N3CCOCC3)c2s1` .
Reply: satisfied

Task item: Check if parasite growth, % of control (lower = inhibition) falls below 40% for `COc1ccc(C=Cc2cc(OC)c(OC)c(OC)c2)cc1O` .
Reply: not satisfied

Task item: Check if parasite growth, % of control (lower = inhibition) falls below 40% for `CC[C@@H]1C(=O)N(C)c2cnc(Nc3ccc(C(=O)NC4CCN(C)CC4)cc3OC)nc2N1C1CCCC1` .
Reply: satisfied

====

tested on: Zika virus NS2B-NS3 protease (linked construct); assay: Confirmatory screen NINDS AMC qHTS for Zika virus inhibitors (AID 1347152); details: Purified linked NS2B-NS3, AMC substrate fluorescence; series mostly up to 110 µM; note: nearly all actives have a fitted effect of over 70% in size
Records with an inconclusive call do not appear. Active and inactive are the calls of the source. Calls come from the whole dose curve; as a rule, active = well fitted inhibition curve with a large enough effect; inconclusive = small, poorly fitted or top-dose-only effect; inactive = flat fitted curve, though single readings scatter.
Hi there, use one of these labels in your reply, thanks! TRUE = active, FALSE = inactive

Molecule	Cat
C[C@@]12O[C@@H](C[C@]1(O)CO)n1c3ccccc3c3c4c(c5c6ccccc6n2c5c31)CNC4=O	TRUE
CCOC(=O)C1=C(C)NC2=C(C(=O)CC(C)(C)C2)C1c1ccc(-c2ccccc2)cc1 (configuration not stated)	TRUE
CN1CCC(CNc2ccc3ncc(-c4cccc(OC(F)(F)F)c4)n3n2)CC1	TRUE

Task item: Name the outcome recorded for `O=C(Nc1cc(C(F)(F)F)cc(C(F)(F)F)c1)c1cc(Cl)ccc1O` in the assay.
Reply: TRUE

Task item: Name the outcome recorded for `O=c1c2ccccc2nc2n1CCc1c-2[nH]c2ccccc12` in the assay.
Reply: TRUE

Task item: Name the outcome recorded for `CCS(=O)(=O)c1cccc(-c2cc(C(=O)NC3CCN(C)CC3)c(C)c3[nH]c4ncc(C)cc4c23)c1` in the assay.
Reply: TRUE

Task item: Name the outcome recorded for `CC(C)c1ccccc1Cc1cc(C(=O)Nc2ccc(S(=O)(=O)c3ccccc3C(C)(C)C)cc2)c(O)c(O)c1O` in the assay.
Reply: FALSE

====

tested on: DIV17; assay: qHTS profiling for inhibitors of Plasmodium falciparum proliferation (AID 504749); note: nearly all actives have a fitted effect of over 60% in size; settings: P. falciparum in erythrocytes, SYBR Green DNA, 72 h; series mostly up to 28.7 µM
Records with an inconclusive call do not appear. Activity calls are given as the source filed them. The call rests on the fitted dose curve; in most records, active means well fitted inhibition curve with a large enough effect; inconclusive means small, poorly fitted or top-dose-only effect; inactive means flat fitted curve, though single readings scatter.
Hi there, use one of these labels in your reply, thanks! Y for active, N for inactive

Compound	Cat
CN1c2cc(O)c(N=NC(N)=O)cc2CC1S(=O)(=O)O (stereo unspecified)	N
COc1c(N2C[C@@H]3CCCN[C@H]3C2)c(F)cc2c(=O)c(C(=O)O)cn(C3CC3)c12	N
O=c1[nH]c(=O)n(C2CCCO2)cc1F (stereo unspecified)	N

Task item: Name the outcome recorded for `CCC1=C[C@@H]2CN(C1)Cc1c([nH]c3ccccc13)[C@@](C(=O)OC)(c1cc3c(cc1OC)N(C)[C@@H]1[C@@](O)(C(=O)OC)[C@H](OC(C)=O)[C@]4(CC)C=CCN5CC[C@]31[C@@H]54)C2` in the assay.
Reply: Y

Task item: Name the outcome recorded for `C[C@H]1C[C@@H]2[C@@H]([C@@H](O)C[C@@]3(C)[C@H]2CC[C@]3(O)C(=O)CO)[C@@]2(C)C=CC(=O)C=C12` in the assay.
Reply: N

Task item: Name the outcome recorded for `Nc1ccn([C@@H]2O[C@H](CO)[C@H](O)C2(F)F)c(=O)n1` in the assay.
Reply: Y

====

test: Quantitative High-Throughput drug screen in 47 multiple myeloma cell lines against the NCATS MIPE library collection: KMS28PE_JCRB cell viability assay (AID 1918983); conditions: KMS28PE multiple myeloma viability, CellTiter-Glo ATP, 48 h; series mostly up to 45.8 µM; note: nearly all actives have a fitted effect of over 35% in size
Records with an inconclusive call do not appear. Activity calls are given as the source filed them. The call rests on the fitted dose curve; in most records, active means well fitted cell-killing curve with a large enough effect; inconclusive means small, poorly fitted or top-dose-only effect, or effect the other way; inactive means no such curve, though single readings can be large or run the other way.
Hi there, use one of these labels in your reply, thanks! Yes = active, No = inactive

Task item: Name the outcome recorded for `CCOc1cc2ncc(C#N)c(Nc3ccc(F)c(Cl)c3)c2cc1NC(=O)C=CCN(C)C` in the assay.
Reply: Yes

Task item: Name the outcome recorded for `CN(C)CC=CC(=O)Nc1cc2c(Nc3ccc(F)c(Cl)c3)ncnc2cc1O[C@H]1CCOC1` in the assay.
Reply: Yes

Task item: Name the outcome recorded for `Cn1cncc1[C@@](N)(c1ccc(Cl)cc1)c1ccc2c(c1)c(-c1cccc(Cl)c1)cc(=O)n2C` in the assay.
Reply: Yes

Task item: Name the outcome recorded for `CN[C@H]1CCc2cc(OC)c(OC)c(OC)c2-c2ccc(OC)c(=O)cc21` in the assay.
Reply: Yes

Task item: Name the outcome recorded for `CC(C)(C)OC(=O)Nc1ccc(-c2cc(C(=O)NCCCCCCC(=O)NO)no2)cc1` in the assay.
Reply: Yes

Task item: Name the outcome recorded for `Cc1c(C)n(Cc2ccc(-c3ccccc3C(=O)O)cc2)c2ccc(C(=O)N[C@@H](C)c3ccc([N+](=O)[O-])cc3)cc12` in the assay.
Reply: No

Task item: Name the outcome recorded for `CN1CCN(Cc2ccc(NC(=O)Nc3ccc(Oc4cc(NC(=O)C5CC5)ncn4)cc3)cc2C(F)(F)F)CC1` in the assay.
Reply: Yes

Task item: Name the outcome recorded for `Clc1cccc(-c2nnnn2Cc2cccnc2)c1Cl` in the assay.
Reply: No

Task item: Name the outcome recorded for COc1ccc(-c2cc3c(C)nc(N)nc3n(C3CCC(OCCO)CC3)c2=O)cn1 (centres undefined) in the assay.
Reply: Yes

Task item: Name the outcome recorded for `COc1cc2c(NC3CCN(C(C)C)CC3)nc(C3CCCCC3)nc2cc1OCCCN1CCCC1` in the assay.
Reply: Yes

Task item: Name the outcome recorded for `CN(c1ncccc1CNc1nc(Nc2ccc3c(c2)CC(=O)N3)ncc1C(F)(F)F)S(C)(=O)=O` in the assay.
Reply: Yes

Task item: Name the outcome recorded for `Nc1nccc(Oc2ccc(NC(=O)c3c[nH]cc(-c4ccc(F)cc4)c3=O)cc2F)c1Cl` in the assay.
Reply: Yes

Task item: Name the outcome recorded for `O=C(Cc1ccc(-c2ccc(OCCN3CCOCC3)cc2)cn1)NCc1ccccc1` in the assay.
Reply: Yes

Task item: Name the outcome recorded for `Cc1ccc(-c2ncn(-c3ccc(Nc4nccc(-c5cccc(N6CCOCC6)c5)n4)cc3)n2)cn1` in the assay.
Reply: Yes
